- measurement-protocol: Biodistribution in male ddY mouse spleen administered intravenously and measured at 60 mins postinjection by gamma counter analysis
- Type: ADME, organism-based
- setup-conditions: in vivo, iv, 1 h
Give Drug uptake for every item shown.
Field format: number, assumed % ID/g, no unit text.

Ask | Fill in: Drug uptake of C[C@H]1CN(c2nc3ccccc3s2)CCCN1C(=O)c1cc([18F])ccc1-n1nccn1 is ___
Reply | 0.29

Ask | Likewise for Cc1ccc(-n2nccn2)c(C(=O)N2CCCN(c3nc4cc([18F])ccc4s3)C[C@@H]2C)c1 ?
Reply | 0.45

Ask | Likewise for Cc1ccc(-n2nccn2)c(C(=O)N2CCCN(c3nc4ccc([18F])cc4s3)C[C@@H]2C)c1 ?
Reply | 0.42

Ask | Likewise for C[C@H]1CN(c2nc3ccc(F)cc3s2)CCCN1C(=O)c1cc([18F])ccc1-n1nccn1 ?
Reply | 0.21

Data origin: ChEMBL document CHEMBL6120977
